Values from patent US20250214969A1

- Target system: truncated His-MBP-Tev-KLHDC2 (residues 1-363) (Homo sapiens, UniProt Q9Y2U9)
- Construct: truncated His -MBP-Tev-KLHDC2 (residues 1-363) purified from E. coli; made in house; host or cells: E. coli
- Sequence (Q9Y2U9 1-363): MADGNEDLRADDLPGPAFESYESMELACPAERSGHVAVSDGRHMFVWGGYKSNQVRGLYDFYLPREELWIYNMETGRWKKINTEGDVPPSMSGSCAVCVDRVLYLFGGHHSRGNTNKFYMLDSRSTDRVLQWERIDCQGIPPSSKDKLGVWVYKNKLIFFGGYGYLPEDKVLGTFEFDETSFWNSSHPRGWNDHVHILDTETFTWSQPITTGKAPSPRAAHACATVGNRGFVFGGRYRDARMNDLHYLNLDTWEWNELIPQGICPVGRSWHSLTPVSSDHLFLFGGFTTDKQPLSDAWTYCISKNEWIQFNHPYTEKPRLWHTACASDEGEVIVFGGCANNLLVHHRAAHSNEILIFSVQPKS
- Test details: KLHDC2 FP competition binding assay
- Condition info: 15 nM KLHDC2 (residues 1-363), 10 nM fluorescein-labeled diglycine peptide probe, read-out: KLHDC2 binding Human FP: average external IC50
Overview of reported IC50 across a group of molecules:

Examples with answers:
1) COc1cc(-c2ccccn2)ccc1C(=O)Nc1ccc(=O)n(CC(=O)O)c1	0.5 to 5 µM
2) O=C(O)Cn1ccccc1=O	> 5 µM
3) O=C(O)Cn1cc(NC(=O)c2cc(-c3cccnc3)ccn2)ccc1=O	0.5 to 5 µM
4) Nc1ccc2cc(C(=O)Nc3ccc(=O)n(CC(=O)O)c3)ccc2c1	> 5 µM

May I ask what IC50 has been recorded for CC(C(=O)O)N1CCCCC1=O (stereo not drawn) ?
> 5 µM

Could you tell me which IC50 is on file for O=C(O)Cn1cc(NC(=O)c2cccc(-c3cccc(Cl)c3)c2)ccc1=O ?
> 5 µM

Could you share which IC50 value was measured for Cc1cc(-c2ccc(=O)n(CC(=O)O)c2)ccc1F ?
> 5 µM

Entry O=C(O)Cn1cc(NC(=O)[C@H]2CCCN(c3cccnc3)C2)c(C2CC2)cc1=O has what IC50?
> 5 µM

Name the reported IC50 value associated with the molecule O=C(O)Cn1cc(NC(=O)[C@H]2CCCN(c3cncc([N+](=O)[O-])c3)C2)ccc1=O
< 0.05 µM

----------
- Target system: truncated His-MBP-Tev-KLHDC2 (residues 1-363) (Homo sapiens, UniProt Q9Y2U9)
- Construct: truncated His -MBP-Tev-KLHDC2 (residues 1-363) purified from E. coli; made in house; host or cells: E. coli
- Test details: KLHDC2 HTRF binding assay
- Condition info: 1 nM KLHDC2 (residues 1-363), fluorescein-labeled diglycine peptide probe
Readout: IC50

1) O=C(O)Cn1cc(NC(=O)[C@H]2CCCN(c3cccnc3)C2)ccc1=O	< 0.05 µM

I would be grateful if you could share the reported IC50 for CNC(=O)c1ccc(-c2cccc(C(=O)Nc3ccc(=O)n(CC(=O)O)c3)c2)cc1 .
> 5 µM

Could you tell me which IC50 is on file for O=C(O)Cn1cc(NC(=O)[C@@H]2CCCN(c3cccnc3)C2)c(Cl)cc1=O ?
0.5 to 5 µM

Quick check: IC50 of O=C(O)Cn1cc(NC(=O)COc2ccccn2)ccc1=O ?
> 5 µM

Which IC50 value belongs to COc1cncc(-c2cccc(C(=O)Nc3ccc(=O)n(CC(=O)O)c3)c2)c1 ?
< 0.05 µM

For COc1ncc(-c2ccc(=O)n(CC(=O)O)c2)cn1 , what is its reported IC50?
> 5 µM

Look up IC50: N#Cc1cc(=O)n(CC(=O)O)cc1NC(=O)[C@H]1CCCN(c2cccnc2)C1
0.05 to 0.5 µM

Sample O=C(O)Cn1cc(NC(=O)c2cccc(-c3cncs3)c2)ccc1=O — what was its IC50?
0.5 to 5 µM
